# System: Caenorhabditis elegans N2
# methodNotes: food intake (delta OD600 day1-day4, bacterial clearance) (OD600 units); higher = more food eaten
# testContext: 10 µM; genotype: wt; 72 h
Documented food intake across a set of compounds
Keep it simple and answer with nothing but the number.

Write down the reported food intake of "OCCOCCN1CCN(C2=Nc3ccccc3Sc3ccccc32)CC1" , test system: Caenorhabditis elegans N2.
0.00847

Write down the reported food intake of "CN1CCN(C2=Nc3ccccc3Oc3ccc(Cl)cc32)CC1" , test system: Caenorhabditis elegans N2.
0.0212

Write down the reported food intake of "Cc1cc2c(s1)Nc1ccccc1N=C2N1CCN(C)CC1" , test system: Caenorhabditis elegans N2.
0.0159

Write down the reported food intake of "CN(C)CC/C=C1/c2ccccc2Sc2ccc(Cl)cc21" , test system: Caenorhabditis elegans N2.
0.0194

The measurements presented in this section are drawn from the supplement of paper PMC6288085.
